System: Leishmania donovani
Assay: Leishmania intramacrophage assay
Type: functional, organism-based
PROPERTY_LABEL: pIC50

[[record]]
compound = "Cc1[nH]/c(=N\\C(=O)c2csc(NC3CC3)n2)sc1C"
result = 4.559

[[record]]
compound = "CC(N)C(=O)N1CCC(Oc2cccc(C(F)(F)F)c2)CC1 (configuration not stated)"
result = 4.638

[[record]]
compound = "CC(C)COc1cccc(-c2nc3c([nH]2)CCNC3)c1"
result = 4.688

[[record]]
compound = "Cc1ccc(CNC2CCN(CCc3ccncc3)CC2)cc1C"
result = 4.955

[[record]]
compound = "CC(C)CNc1nc2c(cc1C(=O)NCC1CC1)CCNCC2"
result = 4.725

[[record]]
compound = "CN(Cc1cc2cc(F)ccc2[nH]1)c1cc(C2CCCNC2)ncn1 (configuration not stated)"
result = 4.89

[[record]]
compound = "CCN(Cc1c(F)cccc1Cl)c1cc(C2CCNCC2)nc(C)n1"
result = 5.445

[[record]]
compound = "Cc1nc2c(c(NCC(O)c3ccccc3Cl)n1)CCNCC2 (configuration not stated)"
result = 4.337

[[record]]
compound = "Cc1nc(C2(O)CCCNCC2)sc1CCOc1ccccc1Cl.Cl (configuration not stated)"
result = 5.014

[[record]]
compound = "COc1cccc(CNC(CN2CCN(C)CC2)c2ccccc2)c1 (configuration not stated)"
result = 4.672

[[record]]
compound = "NCC1Cc2cc(Cl)cc(-c3cncc(C(=O)N4CCCCC4)n3)c2O1 (configuration not stated)"
result = 4.491

[[record]]
compound = "COc1c(F)cc(-c2cccc3c2OC(CN)C3)cc1F (configuration not stated)"
result = 4.693

